Would you mind telling me the reported % Encapsulation Efficiency of each entry?
Test: Ribogreen assay for siRNA encapsulation efficiency of Lipid-Based Particles
Format: physicochemical
Details: in vitro formulation b: Cationic lipid/PEG-Chol/DSPC/Chol 45/10/15/30 wt %, Lipid:siRNA 25:1
One number for each entry, in %.

Sample records with % Encapsulation Efficiency:
compound smiles	% Encapsulation Efficiency (%)
CCCCC/C=C\C/C=C\CCCCCCCCOCC(COCCCCCCCC/C=C\C/C=C\CCCCC)N1CCN(C)CC1	96.7
CCCCC/C=C\C/C=C\CCCCCCCCOCC(COCCCCCCCC/C=C\C/C=C\CCCCC)N1CCN(CCCN(C)C)CC1	72.6
CCCCC/C=C\C/C=C\CCCCCCCCOCC(COCCCCCCCC/C=C\C/C=C\CCCCC)NCCN1CCN(C)CC1	81.8

Then this molecule:
Exam item: Please look up its % Encapsulation Efficiency: CCCCC/C=C\C/C=C\CCCCCCCCOCC(COCCCCCCCC/C=C\C/C=C\CCCCC)NCCCN1CCCC1
Marked response: 84.2

* * *

Assay: Ribogreen assay for siRNA encapsulation efficiency of Lipid-Based Particles
Type: physicochemical
Details: in vitro formulation a: Cationic lipid/Example 56/DSPC/Chol 45/10/15/30 wt %, Lipid:siRNA 25:1
metric: % Encapsulation Efficiency (%)
Numbers only, in %.

compound smiles	% Encapsulation Efficiency / %
CCCCC/C=C\C/C=C\CCCCCCCCOCC(COCCCCCCCC/C=C\C/C=C\CCCCC)N1CCN(CCN2CCCC2)CC1	77.9

Give % Encapsulation Efficiency for each of the items listed below.
1. CCCCC/C=C\C/C=C\CCCCCCCCOCC(N)COCCCCCCCC/C=C\C/C=C\CCCCC
2. CCCCC/C=C\C/C=C\CCCCCCCC(=O)OCC(COC(=O)CCCCCCC/C=C\C/C=C\CCCCC)N1CCN(C)CC1

Marked response:
1. 96.0
2. 96.6

Look up % Encapsulation Efficiency for the entries below, preserving their order.
1. CCCCC/C=C\C/C=C\CCCCCCCCOCC(COCCCCCCCC/C=C\C/C=C\CCCCC)NCc1cccc(CN2CCN(C)CC2)c1
2. CCCCC/C=C\C/C=C\CCCCCCCC(=O)OCC(COC(=O)CCCCCCC/C=C\C/C=C\CCCCC)NCCCN1CCCC1

Marked response:
[96.2, 88.4]

Provide % Encapsulation Efficiency for all items below, preserving their order.
1. CCCCC/C=C\C/C=C\CCCCCCCCOCC(COCCCCCCCC/C=C\C/C=C\CCCCC)N(C)Cc1cccc(CN2CCCC2)c1
2. CCCCC/C=C\C/C=C\CCCCCCCCOCC(COCCCCCCCC/C=C\C/C=C\CCCCC)NCc1cccc(CN2CCCC2)c1
3. CCCCC/C=C\C/C=C\CCCCCCCCOCC(COCCCCCCCC/C=C\C/C=C\CCCCC)NCc1cccnc1N1CCCC1
4. CCCCC/C=C\C/C=C\CCCCCCCCOCC(COCCCCCCCC/C=C\C/C=C\CCCCC)N1CCN(CCn2ccnc2)CC1

Marked response:
1: 96.7; 2: 97.1; 3: 55.9; 4: 97.0

* * *

Test: Ribogreen assay for siRNA encapsulation efficiency of Lipid-Based Particles
Type: physicochemical
Settings: in vivo formulation A: Cationic lipid/Example 58/DSPC/Chol 45/10/15/30 wt %, Lipid:siRNA 25:1
metric: % Encapsulation Efficiency (%)
Numbers only, in %.

For every item in the list below, what is its measured % Encapsulation Efficiency?
1. CCCCC/C=C\C/C=C\CCCCCCCCOCC(COCCCCCCCC/C=C\C/C=C\CCCCC)CN1CCN(C)CC1
2. CCCCC/C=C\C/C=C\CCCCCCCCOCC(COCCCCCCCC/C=C\C/C=C\CCCCC)N1CCN(C)CC1
3. CCCCC/C=C\C/C=C\CCCCCCCCOCC(COCCCCCCCC/C=C\C/C=C\CCCCC)NCCCN1CCCC1
4. CCCCC/C=C\C/C=C\CCCCCCCCOCC(COCCCCCCCC/C=C\C/C=C\CCCCC)NCCCn1ccnc1

Marked response:
1. 93.2
2. 72.6
3. 75.5
4. 87.6

* * *

Assay: Particle sizing assay of in vitro formulations (dynamic light scattering, DynaPro plate reader)
Format: physicochemical
Details: in vitro formulation b: Cationic lipid/PEG-Chol/DSPC/Chol 45/10/15/30 wt %, Lipid:siRNA 25:1
Please provide measured Size for the entries that follow.
Answers are plain numbers, in nm.

compound smiles	units of measure	assay result
CCCCC/C=C\C/C=C\CCCCCCCCOCC(COCCCCCCCC/C=C\C/C=C\CCCCC)N(C)CC1CCN(C)CC1	nm	130

# batch: return Size for each of the 4 compounds below
1. CCCCC/C=C\C/C=C\CCCCCCCCOCC(COCCCCCCCC/C=C\C/C=C\CCCCC)N(C)CCCN(C)C
2. CCCCC/C=C\C/C=C\CCCCCCCCOCC(COCCCCCCCC/C=C\C/C=C\CCCCC)NCCc1c[nH]cn1
3. CCCCC/C=C\C/C=C\CCCCCCCCOCC(COCCCCCCCC/C=C\C/C=C\CCCCC)NCC1CCN(C)CC1
4. CCCCC/C=C\C/C=C\CCCCCCCCOCC(COCCCCCCCC/C=C\C/C=C\CCCCC)N1CCN(C)CC1

Marked response:
[121.8, 116.8, 119.8, 125.6]

For each of the compounds below, state Size.
1. CCCCC/C=C\C/C=C\CCCCCCCCOCC(COCCCCCCCC/C=C\C/C=C\CCCCC)NCCN(C)C
2. CCCCC/C=C\C/C=C\CCCCCCCCOCC(COCCCCCCCC/C=C\C/C=C\CCCCC)N1CCN(CCCN(C)C)CC1
3. CCCCC/C=C\C/C=C\CCCCCCCCOCC(COCCCCCCCC/C=C\C/C=C\CCCCC)NCCN1CCN(C)CC1
4. CCCCC/C=C\C/C=C\CCCCCCCCOCC(COCCCCCCCC/C=C\C/C=C\CCCCC)NCCCN1CCCC1
5. CCCCC/C=C\C/C=C\CCCCCCCCOCC(COCCCCCCCC/C=C\C/C=C\CCCCC)N(C)CCCN1CCCC1

Marked response:
[130, 112, 107.6, 132.6, 128.4]

* * *

Assay: Ribogreen assay for siRNA encapsulation efficiency of Lipid-Based Particles
Format: physicochemical
Conditions: in vitro formulation b: Cationic lipid/PEG-Chol/DSPC/Chol 45/10/15/30 wt %, Lipid:siRNA 25:1
metric: % Encapsulation Efficiency (%)
Numbers only, in %.

Below: 4 molecules and their reported % Encapsulation Efficiency.
compound smiles	units of measure	% Encapsulation Efficiency
CCCCC/C=C\C/C=C\CCCCCCCCOCC(COCCCCCCCC/C=C\C/C=C\CCCCC)N(C)CCCN1CCCC1	%	88.3
CCCCC/C=C\C/C=C\CCCCCCCCOCC(COCCCCCCCC/C=C\C/C=C\CCCCC)N(C)CC1CCN(C)CC1	%	93.1
CCCCC/C=C\C/C=C\CCCCCCCCOCC(COCCCCCCCC/C=C\C/C=C\CCCCC)COC(=O)NCCN(C)C	%	95.0
CCCCC/C=C\C/C=C\CCCCCCCCOCC(COCCCCCCCC/C=C\C/C=C\CCCCC)COC(=O)NCCN(CC)CC	%	93.0

Exam item: Record request: % Encapsulation Efficiency value, item CCCCC/C=C\C/C=C\CCCCCCCCOCC(COCCCCCCCC/C=C\C/C=C\CCCCC)N(C)CCCN(C)C
Marked response: 87.1
